pIC50: −log10 of the molar value.
As a worked illustration, we turn to pIC50 data collected for USP28 (Homo sapiens, UniProt Q96RU2).

given_smiles=O=c1ccc(-c2noc(Cc3cc(F)cc(F)c3)n2)c[nH]1 recorded_endpoint=pIC50 reported="5.00 to 6.00"
given_smiles=O=c1ccc(-c2noc(Cc3ccc(Cl)c(Cl)c3)n2)cn1Cc1ccccc1 recorded_endpoint=pIC50 reported="5.00 to 6.00"
given_smiles=O=c1ccc(-c2noc(Cc3cccc(Cl)c3)n2)c[nH]1 recorded_endpoint=pIC50 reported="> 6.00"
given_smiles=O=[N+]([O-])c1cc(Cc2nc(-c3ccc(Cl)nc3)no2)ccc1Cl recorded_endpoint=pIC50 reported="5.00 to 6.00"
given_smiles=N[C@@H](Cc1ccccc1)c1nc(-c2ccc(=O)[nH]c2)no1 recorded_endpoint=pIC50 reported="< 4.00"

From here, focus on the item given below.
Request: Give USP28 (Homo sapiens, UniProt Q96RU2) pIC50 for `Clc1ccc(Cc2nc(-c3ccc(Cl)nc3)no2)cc1`
Response: 5.00 to 6.00

* * *

measured_target: USP28 (Homo sapiens, UniProt Q96RU2)
Sequence (Q96RU2 1-1077): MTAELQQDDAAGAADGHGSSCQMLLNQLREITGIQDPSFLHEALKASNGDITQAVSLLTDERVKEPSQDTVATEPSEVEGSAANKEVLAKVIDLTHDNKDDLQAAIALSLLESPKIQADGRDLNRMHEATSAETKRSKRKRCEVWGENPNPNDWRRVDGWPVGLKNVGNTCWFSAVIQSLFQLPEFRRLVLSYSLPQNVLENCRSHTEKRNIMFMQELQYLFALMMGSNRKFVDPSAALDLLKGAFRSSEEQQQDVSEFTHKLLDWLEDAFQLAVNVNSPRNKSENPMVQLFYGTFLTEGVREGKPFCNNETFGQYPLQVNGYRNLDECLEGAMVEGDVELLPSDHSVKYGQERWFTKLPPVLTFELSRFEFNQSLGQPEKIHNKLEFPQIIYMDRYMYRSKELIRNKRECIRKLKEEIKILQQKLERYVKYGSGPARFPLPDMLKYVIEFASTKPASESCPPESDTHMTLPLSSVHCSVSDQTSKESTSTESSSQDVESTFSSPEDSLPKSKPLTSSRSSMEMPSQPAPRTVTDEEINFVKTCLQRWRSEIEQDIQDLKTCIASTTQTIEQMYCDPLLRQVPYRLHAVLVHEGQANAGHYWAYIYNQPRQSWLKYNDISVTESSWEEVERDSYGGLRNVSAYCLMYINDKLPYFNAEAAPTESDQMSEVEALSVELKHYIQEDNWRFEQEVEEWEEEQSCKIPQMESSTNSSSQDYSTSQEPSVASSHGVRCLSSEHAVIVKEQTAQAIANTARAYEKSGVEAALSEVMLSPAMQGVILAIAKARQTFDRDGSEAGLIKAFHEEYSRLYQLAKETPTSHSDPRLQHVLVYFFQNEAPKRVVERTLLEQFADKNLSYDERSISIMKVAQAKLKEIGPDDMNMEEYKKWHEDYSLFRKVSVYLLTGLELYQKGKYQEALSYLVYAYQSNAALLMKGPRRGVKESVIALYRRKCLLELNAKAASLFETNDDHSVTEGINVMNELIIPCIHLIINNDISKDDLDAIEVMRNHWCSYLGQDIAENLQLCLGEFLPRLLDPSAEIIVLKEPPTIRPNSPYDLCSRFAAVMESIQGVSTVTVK
The entries below come with measured IC50 values attached.

compound=COC(=O)c1ccc(Cc2noc(Cc3ccc(Cl)c(Cl)c3)n2)cc1 measured_target="USP28 (Homo sapiens, UniProt Q96RU2)" recorded_endpoint=IC50 reported="> 100 µM"
compound="CCC(c1ccccc1)c1nc(-c2ccc(=O)[nH]c2)no1 (centres unmarked)" measured_target="USP28 (Homo sapiens, UniProt Q96RU2)" recorded_endpoint=IC50 reported="> 100 µM"

Request: Tell me the measured IC50 of `O=C(O)c1ccc(Cc2noc(Cc3ccc(Cl)c(Cl)c3)n2)cc1` , please.
Response: 10 to 100 µM

Request: Given `Nc1ccc(Cc2nc(-c3ccc(Cl)nc3)no2)cc1` , state its recorded IC50.
Response: 10 to 100 µM

Request: What measured IC50 goes with `Clc1cccc(Cc2nc(-c3ccc(Cl)nc3)no2)c1` ?
Response: 1 to 10 µM

* * *

Observed IC50 values for USP28 (Homo sapiens, UniProt Q96RU2) are listed in what follows.

given_smiles=O=c1ccc(-c2nc(Cc3ccc(Cl)c(Cl)c3)no2)c[nH]1 measured_target="USP28 (Homo sapiens, UniProt Q96RU2)" reported="1 to 10 µM"

Request: Which value of IC50 has been reported for `O=c1ccc(-c2noc(Cc3ccc(Cl)c(Cl)c3)n2)c[nH]1` in the records?
Response: < 1 µM

Request: Quick one: IC50 for `O=c1ccc(-c2nc(-c3ccc(OC(F)(F)F)cc3)no2)cn1Cc1ccnc(Cl)c1` ?
Response: > 100 µM
